# credit: patent US20120135923A1

Biological target: T1, human melanocortin receptor subtype 3 (hMC3-R) (human, UniProt P41968 1-323)
T1 construct: whole, on cells; membranes of CHO-K1 cells
T1 sequence (P41968 whole entry): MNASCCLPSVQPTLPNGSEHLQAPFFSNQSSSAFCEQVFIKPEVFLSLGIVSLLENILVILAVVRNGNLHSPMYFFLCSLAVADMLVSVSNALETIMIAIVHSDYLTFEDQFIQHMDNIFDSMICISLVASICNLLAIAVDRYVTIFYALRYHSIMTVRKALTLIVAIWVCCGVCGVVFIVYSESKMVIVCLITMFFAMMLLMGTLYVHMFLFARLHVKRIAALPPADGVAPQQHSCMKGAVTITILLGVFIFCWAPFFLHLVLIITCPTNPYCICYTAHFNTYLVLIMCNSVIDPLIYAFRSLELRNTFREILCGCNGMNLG
Test: [125I]-NDP-α-MSH competition, membranes
pKi: −log10 of the molar value. Bridge positions count the residues as written; N and C are the ends. Square brackets hold non-standard residues; d marks the D form. Ends that are not written are not given here. 1Nal = N[C@@H](Cc1cccc2ccccc12)C(=O)O; 2Nal = N[C@@H](Cc1ccc2ccccc2c1)C(=O)O; d2Nal = N[C@H](Cc1ccc2ccccc2c1)C(=O)O; Bta = N[C@@H](Cc1csc2ccccc12)C(=O)O; Ac6c = NC1(C(=O)O)CCCCC1; βAla = NCCC(=O)O
Classify as follows. Reported pKi greater than or equal to 8: Criterion met. Reported pKi below: Criterion not met.

1. Ac-CEH[d2Nal]R[2Nal]ACPPKD[βAla]RRRRRRQRRR-NH2 (disulfide 1-8) [Ac-c(Cys-Glu-His-D-2-Nal-Arg-2-Nal-Ala-Cys)-Pro-Pro-Lys-Asp-β-[…]NH2] : Criterion met
2. Ac-CEH[d2Nal]R[1Nal]ACPPKD[βAla]RRRRRRQRRR-NH2 (disulfide 1-8) : Criterion not met
3. D[Ac6c][d2Nal]RWK-NH2 (lactam 1-6; also: hydantoin ring: N-terminal N of Asp1 and backbone N of residue 2 bridged by one C(O), bridge at N via C(O), other end not in the chain) [c[Hydantoin(C(O)-(Asp-A6c))-D-2-Nal-Arg-Trp-Lys]-NH2] : Criterion not met
4. Ac-CEH[d2Nal]R[Bta]ACPPKD[βAla]RRRRRQRRR-NH2 (disulfide 1-8) [Ac-c(Cys-Glu-His-D-2-Nal-Arg-Bal-Ala-Cys)-Pro-Pro-Lys-Asp-β-[…]NH2] : Criterion met

Prompt: // inclusive: pKi at least 8? input: Ac-CEH[d2Nal]R[1Nal]ACPPKD[βAla]YGRKRRRQRRR-NH2 (disulfide 1-8)
Response: Criterion met
